# System: MOLT-4 leukemia
# Experiment notes: NCI-60 one-dose screen, 48 h (100 = growth as untreated, 0 = no growth, -100 = all killed)
# Conditions used: 10 µM unless noted
# Experimental: Growth inhibition of the MOLT-4 human tumor cell line is measured as a screen for anti-cancer activity. Cells are grown in 96 well plates and exposed to the test compound for 48 hours. Compounds are tested at a single concentration, which is 10^-5 M for most compounds. The reported endpoint is percent growth (GI% or GIPRCNT), where numbers from 0 - 100% represent growth inhibition, and numbers from -100% - 0 represent cell death. For example, a value of 40 represents 60% growth inhibition. […]
This is part of a sample that, as a whole, favours compounds with a hit. Of some 83,000 tested, about 20% had one in any assay.
Experimental endpoint: growth (%)
Expressed in %, but write only the number.

Measured growth of `C=CN(C)S(C)(=O)=O` : 30.1

Measured growth of `COc1cc2c(cc1OC)C(Cc1cc(OC)c(OC)cc1[N+](=O)[O-])=NCC2` : 92.4

Measured growth of `CCOC1=C(Cl)C(=O)C(OCC)=C(Cl)C1=O` : 88.1

* * *

# Tested on: U251 CNS
# Experiment notes: NCI-60 one-dose screen, 48 h
# Conditions used: 10 µM unless noted
This is part of a sample that, as a whole, favours compounds with a hit. Of some 83,000 tested, about 20% had one in any assay. Active and inactive are the calls of the source. How the source made its calls: active means growth percent below 10; inactive means the rest.
Parameter call: string, one of active, inactive

Hey, what did the test say about `O=C(N/N=C\c1ccc(Cl)cc1)C(=O)N/N=C\c1ccc(Cl)cc1` ?
inactive

Hey, what did the test say about `Cc1c(Cc2ccccc2)c(=O)oc2c(C)c(OCC(=O)n3nc(C#N)cc3N)ccc12` ?
inactive

Hey, what did the test say about NC(CSC(c1ccccc1)(c1ccccc1)c1ccccc1)C(=O)NCC(=O)O (stereo unspecified) ?
inactive

Hey, what did the test say about `O=C(NCCCl)Nc1nccnc1OCc1ccc(F)cc1` ?
inactive

Hey, what did the test say about `CC(C)C(=O)c1ccc(Cl)s1` ?
inactive

Hey, what did the test say about CCC(C)[C@H](NC(=O)Nc1cc(C(F)(F)F)cc(C(F)(F)F)c1)C(=O)N[C@@H](Cc1cn(C)cn1)C(=O)OC (stereo partly specified) ?
active

Hey, what did the test say about `COc1ccc(/C(=C(\c2ccccc2)[N+](=O)[O-])c2ccc(OCCN3CCCC3)cc2)cc1` ?
inactive

Hey, what did the test say about `CC1(C)N=C(N)N=C(N)N1c1cccc(CCCCOc2ccccc2)c1` ?
inactive

Hey, what did the test say about CC(O)CN(CCO)CCN(CCO)CC(C)O (stereo unspecified) ?
inactive

Hey, what did the test say about `CC(=O)Nc1nc(C)c(C(=O)NNS(=O)(=O)c2ccccc2)s1` ?
inactive

Hey, what did the test say about `CCCCCCCCC(=O)Nc1ccc(O)cc1` ?
inactive

Hey, what did the test say about `FC(F)(F)c1cccc(-c2[nH]ncc2-c2nnnn2-c2ccccc2)c1` ?
inactive

Hey, what did the test say about CCCCCCCCCCC(C[N+](C)(C)C/C=C/c1ccccc1)C(O)c1ccccc1 (stereo unspecified) ?
active

Hey, what did the test say about `Cc1nc(NC(=S)Nc2ccc(F)cc2)sc1C(=O)NNC(=S)Nc1ccc(F)cc1` ?
inactive

Hey, what did the test say about `COc1cc2oc(-c3ccc(NC(=O)c4ccccc4)cc3)cc(=O)c2c(OC)c1OC` ?
inactive

Hey, what did the test say about `COc1cccc(NC(=O)NCCNc2nccc(-c3c(-c4ccc(F)cc4)nc4sccn34)n2)c1` ?
inactive

Hey, what did the test say about CC(C)(C)C(=O)OCOP(=O)(OCOC(=O)C(C)(C)C)C1CC(O)N(O)C1=O (stereo unspecified) ?
active

Hey, what did the test say about N#Cc1ccc(NC2c3ccccc3CC2O)cc1 (stereo unspecified) ?
inactive

Hey, what did the test say about O=C(O)CC1Cc2ccccc2C1C(=O)O (stereo unspecified) ?
inactive

Hey, what did the test say about `COc1cc([C@@H]2c3cc4c(cc3[C@H](O)[C@H]3COC[C@@H]23)OCO4)cc(OC)c1OC` ?
inactive

Hey, what did the test say about `CC1=C[C@@H]2c3c(c(O)c(O)c4oc5cc(O)cc(O)c5c(=O)c34)[C@@H](c3cc(O)c(O)c4oc5cc(O)cc(O)c5c(=O)c34)[C@@H]2C(C)(C)C1` ?
active

Hey, what did the test say about O=C(CCCC(=O)Nc1ccc(Cn2nnc3cc(Cl)c(Cl)cc32)cc1)Nc1ccc(CN2N=NC3C=C(Cl)C(Cl)=CC32)cc1 (stereo unspecified) ?
inactive

Hey, what did the test say about `COC(=O)[C@H](Cc1cn(C)cn1)NC(=O)[C@H](Cc1c[nH]c2ccccc12)NC(=O)Nc1cc(C(F)(F)F)cc(C(F)(F)F)c1` ?
active

Hey, what did the test say about `CC(=O)NNC(=O)c1sc(NC(C)=O)nc1C` ?
inactive

Hey, what did the test say about `COc1cc(C(=O)Nc2ccc(N(C)C)cc2)cc(OC)c1OC` ?
inactive

Hey, what did the test say about COC(=O)C1CC(=O)N(C(=O)Nc2ccc(Cl)cc2Cl)C1 (stereo unspecified) ?
inactive

Hey, what did the test say about `C=C(C)[C@@H]1CC[C@]2(COC(=O)c3ccccc3C(=O)O)CC[C@]3(C)[C@H](CC[C@@H]4[C@@]5(C)CCCNC(C)(C)[C@@H]5CC[C@]43C)[C@@H]12` ?
inactive

Hey, what did the test say about `O=C(CBr)OCc1ccc([N+](=O)[O-])o1` ?
inactive

Hey, what did the test say about `N=C(N)N=Nc1ccc(NN=C(N)N)cc1` ?
inactive

Hey, what did the test say about O=C(O)CS(=O)c1ccc(Cl)cc1 (stereo unspecified) ?
inactive

Hey, what did the test say about NC(=O)CC(NC(=O)COc1ccc(Cl)cc1Cl)C(=O)O (stereo unspecified) ?
inactive
